Listing of recorded growth by entry.
tested on: MOLT-4 leukemia; assay: NCI-60 one-dose screen, 48 h (100 = growth as untreated, 0 = no growth, -100 = all killed); conditions: 10 µM
Compounds without any hit were thinned out: in the full panel of roughly 83,000, 20% have a hit.
Dear colleague, please return just the value in %, with no unit written.

Sample records with growth:
COc1ccc(C2N(c3ccc(Br)cc3)N=C(C(C)=O)N2[C@H]2[C@H](OC(C)=O)O[C@H](COC(C)=O)[C@@H](OC(C)=O)[C@@H]2OC(C)=O)cc1 (some centres undefined); 54.6
O=C(Nc1cc(Cl)cc(Cl)c1)Nc1cc(Cl)cc(Cl)c1; -36.2
O=C(O)CCCCCCCCCCN1C(=O)/C(=C/c2cnc(-c3ccccc3)s2)SC1=S; 39.1
CC(=O)Oc1ccccc1C(=O)Oc1ccc(C(=O)/C=C/c2ccncc2)cc1; 40.1
O=C1Nc2cc(Cl)ccc2/C1=C/c1cccc(OCc2ccccc2)c1; 5.59
CN1CCN(Cc2ccc(C(=O)Nc3cccc(Nc4ccc5c(O)cccc5n4)c3)cc2C(F)(F)F)CC1; -2.84
COc1ccc(CN2[C@@H](C(=O)NCc3ccc(C(=O)NO)cc3)Cc3c([nH]c4ccccc34)[C@@H]2C)cc1; 11.3
Cc1ccc(-c2cc(C(=O)N=Nc3c(O)[nH]c4ccc(Br)cc34)c3ccccc3n2)cc1; 14.9

Please turn your attention to the following entry.
input: For the compound O=C(CNc1nc(-c2ccccc2)cs1)Nc1ccc(Cl)cc1[N+](=O)[O-] , report growth.
output: 3.2
